Value source: PubChem BioAssay (Tox21)

molecular target: Androgen receptor (Homo sapiens) (UniProt P10275); assay: qHTS assay to identify small molecule antagonists of the androgen receptor (AR) signaling pathway using the MDA cell line (AID 743042; further: nearly all actives have a fitted effect of over 55% in size; further: potency means the concentration at half of the fitted maximal effect); conditions: MDA-kb2 AR-luc, MMTV luciferase, R1881 antagonist, 16 h; series mostly up to 70.3 µM
Sequence (P10275 whole entry, looked up): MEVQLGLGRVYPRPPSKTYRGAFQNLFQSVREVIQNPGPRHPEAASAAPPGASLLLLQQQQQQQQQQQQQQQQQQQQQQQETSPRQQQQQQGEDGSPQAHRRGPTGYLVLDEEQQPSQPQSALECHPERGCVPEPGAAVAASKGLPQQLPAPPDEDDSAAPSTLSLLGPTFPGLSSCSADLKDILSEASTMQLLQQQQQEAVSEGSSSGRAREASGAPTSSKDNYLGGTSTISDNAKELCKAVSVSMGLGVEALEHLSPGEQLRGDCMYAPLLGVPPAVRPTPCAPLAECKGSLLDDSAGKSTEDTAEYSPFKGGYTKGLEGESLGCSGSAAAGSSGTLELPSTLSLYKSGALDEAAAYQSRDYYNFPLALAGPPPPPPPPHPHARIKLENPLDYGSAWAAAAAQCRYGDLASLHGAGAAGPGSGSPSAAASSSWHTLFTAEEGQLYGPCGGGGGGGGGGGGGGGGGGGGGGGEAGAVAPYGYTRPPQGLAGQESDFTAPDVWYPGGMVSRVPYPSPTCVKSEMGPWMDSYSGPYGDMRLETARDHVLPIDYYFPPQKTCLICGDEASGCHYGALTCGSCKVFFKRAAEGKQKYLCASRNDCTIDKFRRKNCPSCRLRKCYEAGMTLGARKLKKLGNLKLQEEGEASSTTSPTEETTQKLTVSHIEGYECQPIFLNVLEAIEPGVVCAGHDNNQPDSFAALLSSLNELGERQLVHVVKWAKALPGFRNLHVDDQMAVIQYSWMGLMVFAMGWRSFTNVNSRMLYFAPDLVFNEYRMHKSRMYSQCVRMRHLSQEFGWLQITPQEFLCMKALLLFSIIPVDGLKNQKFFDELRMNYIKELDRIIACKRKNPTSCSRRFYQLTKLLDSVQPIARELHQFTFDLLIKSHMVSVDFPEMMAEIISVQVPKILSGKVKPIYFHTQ
Results filed as inconclusive are left out. Activity calls are given as the source filed them. The call rests on the fitted dose curve; in most records, active means well fitted inhibition curve with a large enough effect in the repeat runs; inconclusive means weak or mixed curves, or effect the other way; inactive means no such curve, though single readings can be large or run the other way.
Observation type: Potency

- CCN=C1C=CC(=C(c2ccc(N(CC)CC)cc2)c2ccc(N(CC)CC)cc2)c2ccccc21: 0.043 µM (active)
- C=C1C(C)(C)[C@@]2(Cl)C(Cl)[C@]1(Cl)C(Cl)(Cl)C2(Cl)Cl (stereo not given in full): inactive
- O=C(NO)c1ccccc1: inactive
- CCCCCCCCCCCCN(CCO)CCO: 15.3 µM (active)
- CCCN(CCc1cccs1)[C@H]1CCc2c(O)cccc2C1: inactive
- C[C@]12CC[C@H]3C(=CCc4cc(O)ccc43)[C@@H]1CCC2=O: 27.3 µM (active)
- O=Cc1ccc(F)cc1: inactive
- CCN1CCN(c2cc(-c3ccc(F)cc3)c3c(n2)CCCCCC3)CC1: inactive

[Q] Which Potency value is on record for O=C(Oc1ccccc1)c1cccc(C(=O)Oc2ccccc2)c1 ?
[A] inactive

[Q] Repeat with c1ccc(Sc2ccccc2)cc1
[A] inactive

[Q] Repeat with C[C@@H]1CC[C@H]2C(C)(C)[C@H]3C[C@@]12CC[C@@]3(C)O
[A] inactive

[Q] Repeat with Cc1cn[nH]c1
[A] inactive

[Q] Repeat with CCCOc1sc(C(=O)N2CCC(c3cc(CN)ccc3F)CC2)c(C)c1Br
[A] 44.5 µM (active)

[Q] Repeat with CCCCCCOc1ccc(O)cc1
[A] inactive

[Q] Repeat with O=C1OC(OC(=O)c2cccnc2Nc2cccc(C(F)(F)F)c2)c2ccccc21 (stereo not given)
[A] inactive

* * *

assay: qHTS assay to identify small molecule antagonists of the sonic hedgehog signaling (Shh) pathway (AID 1259369); settings: NIH/3T3 Gli1-Luc reporter, Shh antagonist, luminescence 24 h; series mostly up to 92.4 µM; further: nearly all actives have a fitted effect of over 45% in size; further: potency means the concentration at half of the fitted maximal effect
Inconclusive results are not listed. The source made the active and inactive calls. The call rests on the fitted dose curve.
Observation type: Potency

Solved entries:
* C=C(c1ccc(C(=O)O)cc1)c1cc2c(cc1C)C(C)(C)CCC2(C)C | inactive
* COCC(=O)O[C@]1(CCN(C)CCCc2nc3ccccc3[nH]2)CCc2cc(F)ccc2[C@@H]1C(C)C | 13.3 µM (active)
* CCCOc1sc(C(=O)N2CCC(c3cc(CN)ccc3F)CC2)c(C)c1Br | inactive
* CCCCCCCC/C=C/CCCOC(C)=O | 48.6 µM (active)
* NCCCC(O)(P(=O)(O)O)P(=O)(O)O | inactive

[Q] Which Potency value is on record for COC(=O)[C@]1(C)CCC[C@@]2(C)[C@H]1CC=C1C=C(C(C)C)CC[C@@H]12 ?
[A] inactive

[Q] Repeat with NC1(c2ccc(-c3nc4ccn5c(=O)[nH]nc5c4cc3-c3ccccc3)cc2)CCC1
[A] 0.0944 µM (active)

[Q] Repeat with CCOCOCC
[A] inactive

[Q] Repeat with CCc1cccc(CC)c1N(COC)C(=O)CS(=O)(=O)O
[A] inactive

[Q] Repeat with CCCCCCCC/C=C\CCCCCCCC(=O)NCc1ccc(O)c(OC)c1
[A] inactive

[Q] Repeat with O=C1NCCN1CCN1CCC(c2cn(-c3ccc(F)cc3)c3ccc(Cl)cc23)CC1
[A] 13.3 µM (active)

* * *

test: Caspase-3/7 induction in HepG2 cells by small molecules, qHTS assay (AID 1346978); conditions: HepG2 caspase-3/7 activation, Caspase-Glo luminescence, 17 h; series mostly up to 92.4 µM; further: on the % scale 0 is the no-effect control and ±100 the full control effect; nearly all actives have a fitted effect of over 15% in size
Results filed as inconclusive are left out. The source made the active and inactive calls. Calls come from the whole dose curve; as a rule, active = well fitted activation curve with a large enough effect in the repeat runs; inconclusive = weak or mixed curves; inactive = flat fitted curve, though single readings scatter.
Observation type: outcome

* CC(=O)Oc1ccc(C2(c3ccc(OC(C)=O)cc3)C(=O)Nc3ccccc32)cc1 | inactive
* COc1nccnc1CC(C)C | inactive
* CCc1cccc(C)c1 | inactive

* * *

assay: A CellTox Green Cytotoxicity Assay to monitor cytotoxicity in HEK293 cells - 0 hour (AID 1224869); conditions: CellTox Green fluorescence; series mostly up to 76.8 µM; further: on the % scale 0 is the no-effect control and ±100 the full control effect; nearly all actives have a fitted effect of over 50% in size
Active and inactive are the calls of the source. Calls come from the whole dose curve; as a rule, active = well fitted activation curve with a large enough effect in the repeat runs; inconclusive = weak or mixed curves; inactive = flat fitted curve, though single readings scatter.
Observation type: cytotoxicity

* CCCCCCCCC(C)=O | inactive
* C=C/C=C/C=C/CCCCC | -0.619% [at 15.8 µM] (inactive)
* Cn1cnc2ncnc(N)c21 | inactive
* COC(=O)NCCC[Si](OC)(OC)OC | inactive

[Q] Which cytotoxicity value is on record for CCCCN(C)C ?
[A] inactive

* * *

assay: qHTS RealTime-Glo MT Cell Viability Assay in HepG2 cells - 40 hour (AID 1224870); conditions: RealTime-Glo luminescence; series mostly up to 76.8 µM; further: on the % scale 0 is the no-effect control and ±100 the full control effect; nearly all actives have a fitted effect of over 50% in size
Records with an inconclusive call do not appear. Active and inactive are the calls of the source. Calls follow the shape of the dose curve; as a rule, active = well fitted cell-killing curve with a large enough effect in the repeat runs; inconclusive = weak or mixed curves, or effect the other way; inactive = flat fitted curve, though single readings scatter.
Observation type: outcome

Solved entries:
- CCCCOCC: inactive
- C=C(c1ccc(C(=O)O)cc1)c1cc2c(cc1C)C(C)(C)CCC2(C)C: inactive
- c1ccc(Sc2ccccc2)cc1: inactive
- CC(C)c1ccc(O)c(C(C)C)c1: inactive
- C/C=C/c1ccc(OC)c(OC)c1: inactive

Turning now to a further compound:
[Q] Which outcome value is on record for c1cc[nH]c1 ?
[A] inactive

* * *

test: qHTS assay to identify small molecule agonists of the vitamin D receptor (VDR) signaling pathway - cell viability counter screen (AID 743224); details: VDR-bla HEK293T viability, CellTiter-Glo luminescence, 16 h; series mostly up to 62.6 µM; further: nearly all actives have a fitted effect of over 50% in size
Results filed as inconclusive are left out. Active and inactive are the calls of the source. Calls follow the shape of the dose curve; as a rule, active = well fitted cell-killing curve with a large enough effect in the repeat runs; inconclusive = weak or mixed curves, or effect the other way; inactive = no such curve, though single readings can be large or run the other way.
Your response should consist of one outcome taken from active, inactive

Solved entries (count: 5):
- C=C[C@](C)(O)CC[C@@H]1[C@@]2(C)CCCC(C)(C)[C@@H]2CC[C@@]1(C)O: active
- NC(=O)c1nc(-c2cccc(-c3cc(F)ccc3OCC(F)(F)C(F)(F)F)c2)n[nH]1: active
- CC(C)(c1cc(Br)c(OCCO)c(Br)c1)c1cc(Br)c(OCCO)c(Br)c1: active
- Cc1cc(Nc2ccc(O)cc2)ccc1N: inactive
- CC(C)(C)c1cc(/C=C2\SC(=N)NC2=O)cc(C(C)(C)C)c1O: active

[Q] Hello, I am checking results. What call was entered for CC(C)(C)CC(C)(C)c1ccccc1O ?
[A] active

[Q] Repeat with CCCC(CC)CCCCCCCN (centres undefined)
[A] inactive

[Q] Repeat with CC1CCCCN1CCCOC(=O)c1ccc(OC2CCCCC2)cc1 (centres undefined)
[A] inactive

[Q] Repeat with O=C(O)CCCCCCC(=O)O
[A] inactive

[Q] Repeat with C=C(C)C(=O)OCCC[Si](Cl)(Cl)Cl
[A] inactive

[Q] Repeat with O=C1NC2CCCCN2C12CCN(CCCN1c3ccccc3CCc3ccc(Cl)cc31)CC2 (centres undefined)
[A] inactive

[Q] Repeat with C=CC(=C)CCC=C(C)C
[A] active

[Q] Repeat with CCC1(c2cnc[nH]2)Cc2ccccc2C1
[A] inactive

[Q] Repeat with CCCCN(CCCC)CCC(O)c1cc2c(Cl)cc(Cl)cc2c2cc(C(F)(F)F)ccc12 (centres undefined)
[A] inactive

* * *

Test: qHTS assay to identify small molecule antagonists of the constitutive androstane receptor (CAR) signaling pathway - cell viability counter screen (AID 1224837); further: nearly all actives have a fitted effect of over 45% in size; further: potency means the concentration at half of the fitted maximal effect
Settings: HepG2-CYP2B6-hCAR viability, CellTiter-Fluor, 23 h, co-treated with 50 nM CITCO; series mostly up to 92.4 µM
Procedure: National Center for Advancing Translational Sciences [NCATS] NIH Chemical Genomics Center [NCGC] U.S. Environmental Protection Agency [EPA] National Institutes of Environmental Health Sciences [NIEHS] National Toxicology Program [NTP] […] A double-stable (hCAR and CYP2B6-2.2kb) transfected cell line, derived from human hepatoma (HepG2) cells, was utilized for the duration of the quantitative high-throughput screens. […] The fluorescence intensity in the plates was then measured using a ViewLux plate reader.
Inconclusive results are not listed. Activity calls are given as the source filed them. The call rests on the fitted dose curve; in most records, active means well fitted cell-killing curve with a large enough effect in the repeat runs; inconclusive means weak or mixed curves, or effect the other way; inactive means flat fitted curve, though single readings scatter.
Observation type: Potency

Solved entries:
• CCCC(=O)OCC(COC(=O)CCC)OC(=O)CCC = inactive
• Oc1c(Br)cc(Br)c2cccnc12 = inactive
• CSc1c(Cl)c(Cl)c(Cl)c(Cl)c1Cl = inactive
• S=P(N1CC1)(N1CC1)N1CC1 = inactive
• CC(=O)OC(OC(C)=O)c1ccc([N+](=O)[O-])o1 = 62.2 µM (active)
• CCCCCCCOC(=O)c1ccccc1C(=O)OCCCCCCC = inactive
• C/C=C/C(=O)C1=C(C)CCCC1(C)C = inactive
• CCCCCCS = inactive

Turning now to a further compound:
[Q] Which Potency value is on record for CCO[Si](CCCSSSSCCC[Si](OCC)(OCC)OCC)(OCC)OCC ?
[A] inactive

* * *

experiment: qHTS assay to identify small molecule antagonists of the constitutive androstane receptor (CAR) signaling pathway - cell viability counter screen (AID 1224837); conditions: HepG2-CYP2B6-hCAR viability, CellTiter-Fluor, 23 h, co-treated with 50 nM CITCO; series mostly up to 92.4 µM; further: nearly all actives have a fitted effect of over 45% in size
Results filed as inconclusive are left out. The source made the active and inactive calls. The call rests on the fitted dose curve; in most records, active means well fitted cell-killing curve with a large enough effect in the repeat runs; inconclusive means weak or mixed curves, or effect the other way; inactive means flat fitted curve, though single readings scatter.
Your response should consist of one outcome taken from active, inactive

Solved entries (count: 2):
• C=CC(=O)OCCOCC(CC)(COCCOC(=O)C=C)COCCOC(=O)C=C = active
• CCCCC(CC)COC(=O)c1ccc(O)cc1 (stereo not given) = inactive

[Q] Hello, I am checking results. What call was entered for CNCC[C@H](Oc1cccc2ccccc12)c1cccs1 ?
[A] active

[Q] Repeat with CN1CCN(C2Cc3ccccc3Sc3ccc(Cl)cc32)CC1 (stereo not given)
[A] inactive

[Q] Repeat with CC1=C(/C=C/C(C)=C/C=C/C(C)=C\C=O)C(C)(C)CCC1
[A] inactive
